- SYSTEM: Acetylcholinesterase (Rattus norvegicus)
- Sequence (P37136 whole entry): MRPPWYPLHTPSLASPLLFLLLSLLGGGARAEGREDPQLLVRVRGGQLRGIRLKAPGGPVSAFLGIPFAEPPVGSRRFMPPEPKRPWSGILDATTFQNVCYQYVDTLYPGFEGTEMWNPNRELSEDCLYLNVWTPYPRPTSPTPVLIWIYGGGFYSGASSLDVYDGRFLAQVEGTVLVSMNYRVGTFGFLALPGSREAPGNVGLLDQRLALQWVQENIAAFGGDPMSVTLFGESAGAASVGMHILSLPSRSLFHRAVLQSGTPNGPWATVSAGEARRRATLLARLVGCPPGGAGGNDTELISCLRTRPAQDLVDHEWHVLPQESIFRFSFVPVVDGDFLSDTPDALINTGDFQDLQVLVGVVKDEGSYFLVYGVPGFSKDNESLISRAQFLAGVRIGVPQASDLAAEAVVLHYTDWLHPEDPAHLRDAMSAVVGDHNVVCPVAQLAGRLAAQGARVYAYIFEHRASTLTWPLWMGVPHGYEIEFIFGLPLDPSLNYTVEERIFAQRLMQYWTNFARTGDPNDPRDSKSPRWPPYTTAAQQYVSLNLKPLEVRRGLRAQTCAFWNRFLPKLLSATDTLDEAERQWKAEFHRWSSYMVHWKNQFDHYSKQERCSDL
- MEASUREMENT PROTOCOL: Compound was evaluated in vitro in rats for the inhibition of brain (striatal) acetylcholinesterase (AChEI) using acetylthiocholine as substrate; 21-88
REPORTED METRIC: IC50 (µM)

> print(dat)
                              record.smiles  reported.metric  experimental.value
1  CCCCCCCNC(=O)Oc1ccc2c(c1)c(C)cn2N(CCC)c1ccncc1F             IC50                  43

---

- SYSTEM: Cholinesterase (Homo sapiens)
- Sequence (P06276 whole entry): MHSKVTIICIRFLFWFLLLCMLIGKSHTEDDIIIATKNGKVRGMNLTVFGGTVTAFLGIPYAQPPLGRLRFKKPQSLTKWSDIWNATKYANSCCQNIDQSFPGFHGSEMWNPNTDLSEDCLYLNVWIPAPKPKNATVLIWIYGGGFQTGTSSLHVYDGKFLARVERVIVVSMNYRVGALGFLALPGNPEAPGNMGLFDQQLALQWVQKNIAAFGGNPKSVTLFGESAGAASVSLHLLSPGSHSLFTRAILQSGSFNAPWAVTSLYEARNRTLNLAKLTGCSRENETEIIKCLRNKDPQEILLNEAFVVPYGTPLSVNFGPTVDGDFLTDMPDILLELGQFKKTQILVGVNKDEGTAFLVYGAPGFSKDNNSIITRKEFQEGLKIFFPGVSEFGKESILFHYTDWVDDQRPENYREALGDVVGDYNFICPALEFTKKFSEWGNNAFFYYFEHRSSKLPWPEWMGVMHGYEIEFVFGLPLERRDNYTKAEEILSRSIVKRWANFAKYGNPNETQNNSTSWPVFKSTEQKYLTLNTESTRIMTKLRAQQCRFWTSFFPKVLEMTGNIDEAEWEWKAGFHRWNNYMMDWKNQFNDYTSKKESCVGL
- MEASUREMENT PROTOCOL: In vitro inhibition of human serum Butyrylcholinesterase using butyrylthiocholine as substrate; 0.15-0.22
REPORTED METRIC: IC50 (µM)

> print(dat)
                          record.smiles  unit.abbreviation  experimental.value
1  CNC(=O)Oc1ccc2c(c1)c(C)cn2Nc1ccncc1F                 µM                0.19
